- systemUnderTest: Cytochrome P450 2D6 (Homo sapiens)
- Sequence (P10635 whole entry): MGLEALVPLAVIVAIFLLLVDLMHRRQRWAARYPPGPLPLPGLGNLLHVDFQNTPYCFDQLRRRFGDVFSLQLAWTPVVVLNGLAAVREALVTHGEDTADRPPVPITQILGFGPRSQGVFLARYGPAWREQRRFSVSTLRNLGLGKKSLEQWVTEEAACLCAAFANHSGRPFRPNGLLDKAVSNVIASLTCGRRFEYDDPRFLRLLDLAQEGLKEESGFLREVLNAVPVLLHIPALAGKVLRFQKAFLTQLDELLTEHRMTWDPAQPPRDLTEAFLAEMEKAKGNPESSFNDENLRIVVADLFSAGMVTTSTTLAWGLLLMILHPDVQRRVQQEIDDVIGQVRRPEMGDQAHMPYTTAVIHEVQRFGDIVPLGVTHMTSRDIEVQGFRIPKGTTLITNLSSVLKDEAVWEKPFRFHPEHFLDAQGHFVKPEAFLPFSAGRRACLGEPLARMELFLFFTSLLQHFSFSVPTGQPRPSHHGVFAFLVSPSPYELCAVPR
parameterMeasured: IC50

Return IC50 for the following compound: CC#CCOc1ccc2cc(C(c3ccc(C#N)cc3)n3cncn3)oc2c1 (stereo unspecified) > 25 µM

---

- systemUnderTest: Cytochrome P450 1A2 (Homo sapiens)
- Sequence (P05177 whole entry): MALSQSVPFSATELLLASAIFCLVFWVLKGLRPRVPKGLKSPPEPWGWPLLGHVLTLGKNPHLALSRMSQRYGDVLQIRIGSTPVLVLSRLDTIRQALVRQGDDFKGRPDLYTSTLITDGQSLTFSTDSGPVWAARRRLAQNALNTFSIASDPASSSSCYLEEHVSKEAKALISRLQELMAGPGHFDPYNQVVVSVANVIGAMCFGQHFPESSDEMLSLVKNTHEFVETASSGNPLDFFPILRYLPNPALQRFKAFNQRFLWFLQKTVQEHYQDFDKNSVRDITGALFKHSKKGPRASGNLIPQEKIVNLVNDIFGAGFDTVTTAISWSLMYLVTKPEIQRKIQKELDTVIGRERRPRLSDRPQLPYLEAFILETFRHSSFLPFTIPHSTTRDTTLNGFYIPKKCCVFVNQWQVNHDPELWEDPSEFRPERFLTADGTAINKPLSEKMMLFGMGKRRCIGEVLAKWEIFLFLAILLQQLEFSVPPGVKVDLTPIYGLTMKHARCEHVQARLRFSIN
parameterMeasured: IC50

Print Cytochrome P450 1A2 (Homo sapiens) IC50 for CC#CCOc1ccc2cc(C(c3ccc(C#N)cc3)n3cncn3)oc2c1 (stereo unspecified) . 2880 nM

---

Let's go through some recorded pIC50 values for Aromatase (Homo sapiens, UniProt P11511) together.
Value format note: pIC50 is -log10 of concentration (mol/L); just state the number.

1) C#CCOc1ccc2cc(C(c3ccc(Cl)cc3)n3cncn3)oc2c1 (stereo unspecified); 8.99
2) CC#CCOc1ccc2cc(C(c3ccc(Cl)cc3)n3cncn3)oc2c1 (stereo unspecified); 9.28

Print Aromatase (Homo sapiens, UniProt P11511) pIC50 for CCC#CCOc1ccc2oc(C(c3ccc(Cl)cc3)n3cncn3)cc2c1 (stereo unspecified) . 7.68

Print Aromatase (Homo sapiens, UniProt P11511) pIC50 for CC#CCOc1ccc2cc(C(c3ccc(F)cc3)n3cncn3)oc2c1 (stereo unspecified) . 8.39

Print Aromatase (Homo sapiens, UniProt P11511) pIC50 for CCC#CCOc1ccc2cc(C(c3ccc(C#N)cc3)n3cncn3)oc2c1 (stereo unspecified) . 9.14

Print Aromatase (Homo sapiens, UniProt P11511) pIC50 for `CCC#CCOc1cc(Cn2ccnc2)c2c(=O)c3ccccc3oc2c1` . 11.00

Print Aromatase (Homo sapiens, UniProt P11511) pIC50 for Oc1ccc(C(c2cc3cc(Cl)ccc3o2)n2cncn2)cc1 (stereo unspecified) . 7.52

Print Aromatase (Homo sapiens, UniProt P11511) pIC50 for CCOc1ccc2cc(C(c3ccc(Cl)cc3)n3cncn3)oc2c1 (stereo unspecified) . 9.34

Print Aromatase (Homo sapiens, UniProt P11511) pIC50 for CCC#CCOc1ccc2cc(C(c3ccc(F)cc3)n3cncn3)oc2c1 (stereo unspecified) . 9.29

Print Aromatase (Homo sapiens, UniProt P11511) pIC50 for `CCC#CCOc1ccc2c(=O)c3ccc(Cn4ccnc4)cc3oc2c1` . 11.00

---

Let's go through some recorded IC50 values for Aromatase (Homo sapiens) together.
Write down the numeric answer in nM and omit the unit.

Sample answers from the record:
1) CCC#CCOc1ccc2cc(C(c3ccc(Cl)cc3)n3cncn3)oc2c1 (configuration not stated); 2.76
2) CCC#CCOc1cc(Cn2ccnc2)c2oc3ccccc3c(=O)c2c1; 0.77
3) Oc1ccc2oc(C(c3ccc(Cl)cc3)n3cncn3)cc2c1 (configuration not stated); 5.67
4) Oc1ccc2cc(C(c3ccc(F)cc3)n3cncn3)oc2c1 (configuration not stated); 0.39
5) CC#CCOc1ccc2cc(C(c3ccc(C#N)cc3)n3cncn3)oc2c1 (configuration not stated); 0.09

Here's the next entry for you.
Return IC50 for the following compound: COc1ccc2oc(C(c3ccc(Cl)cc3)n3cncn3)cc2c1 (configuration not stated) 2.01

---

- systemUnderTest: Cytochrome P450 3A4 (Homo sapiens, UniProt P08684)
- Sequence (P08684 whole entry): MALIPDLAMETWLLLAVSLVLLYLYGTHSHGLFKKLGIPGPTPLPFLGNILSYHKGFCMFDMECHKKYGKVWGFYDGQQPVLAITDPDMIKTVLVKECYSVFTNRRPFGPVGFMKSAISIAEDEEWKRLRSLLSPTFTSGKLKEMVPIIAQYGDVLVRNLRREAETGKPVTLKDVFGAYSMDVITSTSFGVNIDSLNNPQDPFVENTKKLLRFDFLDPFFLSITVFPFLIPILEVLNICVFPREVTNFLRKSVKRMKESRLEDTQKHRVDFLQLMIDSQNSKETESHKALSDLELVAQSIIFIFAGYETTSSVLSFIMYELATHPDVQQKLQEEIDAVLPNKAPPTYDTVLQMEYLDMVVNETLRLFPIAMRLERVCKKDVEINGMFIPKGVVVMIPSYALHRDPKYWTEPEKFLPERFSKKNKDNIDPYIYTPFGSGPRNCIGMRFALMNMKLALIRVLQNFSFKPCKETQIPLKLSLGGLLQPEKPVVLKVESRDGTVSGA
pIC50: −log10 of the molar value.
parameterMeasured: pIC50

Print Cytochrome P450 3A4 (Homo sapiens, UniProt P08684) pIC50 for CC#CCOc1ccc2cc(C(c3ccc(C#N)cc3)n3cncn3)oc2c1 (stereo unspecified) . < 4.60
